# protocol-details: method code SF-AS, from DOI: 10.1016/j.ejmech.2010.07.027, PMID: 20705371
endpoint-label: logP

Q) Endpoint output: logP of `CC(C)(C)c1ccc(O)c(CN2CCOCC2)c1` . Value?
A) 1.96

---

Field: logP. Provide a value for each of the compounds that follow.
# protocol-details: method code SF-AS, from DOI: 10.1248/cpb.42.1084, PMID: 8069960
Numbers only.

>>> df
                         smiles_entry  quantitative_readout
0  COc1ccc2[nH]c3c4ccc(Cl)cc4ncc3c2c1                  4.49

Please look at the following compound next.
Q) Give the measured logP of `COc1ccc2[nH]c3c(c2c1)CCNc1cc(Cl)ccc1-3` .
A) 4.24
